Entries and their measured damage to plant (100=total damage to plant; 0=no damage to plant), DIGSA follow.
# Test system: plants
# METHOD DESCRIPTION: Test D pre-emergence, other plants of Tables D1 and D3
# Assay type: in vivo
# MEASUREMENT CONTEXT: DIGSA; preemergent; rate 30; 20 DAA
QUANTITY MEASURED: damage to plant (100=total damage to plant; 0=no damage to plant), DIGSA

{"COMPOUND": "CCn1nc([C@@H]2CN(C)C(=O)[C@H]2C(=O)Nc2cccc(F)c2F)c2cccc(F)c21", "OBS VALUE": 80}
{"COMPOUND": "CCn1nc([C@H]2CN(C)C(=O)[C@@H]2C(=O)Nc2cccc(F)c2F)c2cc(F)ccc21", "OBS VALUE": 90}
{"COMPOUND": "CN1C[C@H](c2nn(C)c3c(F)cccc23)[C@@H](C(=O)Nc2cccc(F)c2F)C1=O", "OBS VALUE": 90}
{"COMPOUND": "CN1CC(c2cc(C(F)(F)F)n(C)n2)C(C(=O)Nc2ccccc2F)C1=O (racemic)", "OBS VALUE": 80}
{"COMPOUND": "CCn1nc([C@H]2CN(C)C(=O)[C@@H]2C(=O)Nc2cccc(F)c2F)c2ccc(F)cc21", "OBS VALUE": 60}

// data source = patent US20220281848A1
